assay: In vivo PK of (S)-BTC in rats: plasma, brain, CSF; settings: male, Sprague Dawley; plasma, rat, 10 mg/kg single oral dose, mean
value kind: Cmax (ng/mL)
Numeric only. Scale: ng/mL

Task: Sample C[C@@H](C[N+](C)(C)C)OC(N)=O.[Cl-] [(S)-BTC, (S)-bethanechol] — what was its Cmax?
Result: 314

###

experiment: In vivo PK of (S)-BTC in rats: plasma, brain, CSF; settings: male, Sprague Dawley; plasma, rat, 10 mg/kg single oral dose, mean
value kind: Tmax (h)
Numeric only. Scale: h

Task: Sample C[C@@H](C[N+](C)(C)C)OC(N)=O.[Cl-] [(S)-BTC, (S)-bethanechol] — what was its Tmax?
Result: 1

###

assay: In vivo PK of (S)-BTC in rats: plasma, brain, CSF; details: male, Sprague Dawley; plasma, rat, 10 mg/kg single oral dose, mean
value kind: AUC(0-t) (µg·h/mL)
Numeric only. Scale: µg·h/mL

Task: Sample C[C@@H](C[N+](C)(C)C)OC(N)=O.[Cl-] [(S)-BTC, (S)-bethanechol] — what was its AUC(0-t)?
Result: 1.03

###

experiment: Hepatocyte stability, human; details: cryopreserved hepatocytes
value kind: hepatocyte CLint at 1 μM (µL/min/1e6 cells)
Numeric only. Scale: µL/min/1e6 cells

Task: Sample O[C@@](CCN1CCCCC1)(c1ccccc1)C1CCCCC1 [(R)-THP, (R)-trihexyphenidyl] — what was its hepatocyte CLint at 1 μM?
Result: 21.9

###

test: Liver microsome stability, human; conditions: human, liver microsomes, Scale-up CLint, human liver microsomes; Table 5
value kind: CLint scaled at 1 μM

Task: Sample O[C@@](CCN1CCCCC1)(c1ccccc1)C1CCCCC1 [(R)-THP, (R)-trihexyphenidyl] — what was its CLint scaled at 1 μM?
Result: 21.8 mL/min/kg

###

# key: entry, value: CLint scaled at 1 μM
assay: Liver microsome stability, human; conditions: human, liver microsomes, Scale-up CLint, human liver microsomes; Example 15, Table 20
Numeric only. Scale: mL/min/kg

Task: Sample O[C@](CCN1CCCCC1)(c1ccccc1)C1CCCCC1 [(S)-THP, (S)-trihexyphenidyl] — what was its CLint scaled at 1 μM?
Result: 58.9

Task: Sample O[C@@](CCN1CCCCC1)(c1ccccc1)C1CCCCC1 [(R)-THP, (R)-trihexyphenidyl] — what was its CLint scaled at 1 μM?
Result: 20.4

###

assay: Whole blood stability, dog; conditions: dog, whole blood
value kind: half-life at 5 μM (h)
Numeric only. Scale: h

Task: Sample CC(C)[N+](C)(CCOC(=O)C1c2ccccc2Oc2ccccc21)C(C)C — what was its half-life at 5 μM?
Result: 3.07

###

experiment: Hepatocyte stability, rat; conditions: cryopreserved hepatocytes
value kind: CLint scaled at 1 μM (L/h/kg)
Numeric only. Scale: L/h/kg

Task: Sample O[C@@](CCN1CCCCC1)(c1ccccc1)C1CCCCC1 [(R)-THP, (R)-trihexyphenidyl] — what was its CLint scaled at 1 μM?
Result: 265

###

assay: In vivo PK of (S)-BTC in rats: plasma, brain, CSF; conditions: male, Sprague Dawley, rat, brain and plasma, po, 10 mg/kg, 10 mg/kg single oral dose, read-out: Cmax Ratio (Brain/Plasma)
value kind: Kp
Kindly provide the number alone.

Task: Sample C[C@@H](C[N+](C)(C)C)OC(N)=O.[Cl-] [(S)-BTC, (S)-bethanechol] — what was its Kp?
Result: 0.0242

###

test: Liver microsome stability, rat; details: rat, liver microsomes, in vitro t1/2, rat liver microsomes, with NADPH, 1 μM; Table 5
value kind: half-life at 1 μM (s)
Numeric only. Scale: s

Task: Sample O[C@@](CCN1CCCCC1)(c1ccccc1)C1CCCCC1 [(R)-THP, (R)-trihexyphenidyl] — what was its half-life at 1 μM?
Result: 34.8

###

test: Liver microsome stability, dog; details: dog, liver microsomes, in vitro t1/2, dog liver microsomes, with NADPH, 1 μM; Table 5
value kind: half-life at 1 μM (min)
Numeric only. Scale: min

Task: Sample O[C@@](CCN1CCCCC1)(c1ccccc1)C1CCCCC1 [(R)-THP, (R)-trihexyphenidyl] — what was its half-life at 1 μM?
Result: 9.51

###

test: In vivo PK of (S)-BTC in rats: plasma, brain, CSF; conditions: male, Sprague Dawley; plasma, rat, 10 mg/kg single oral dose, mean
value kind: AUC(0-inf) (ng·h/mL)
Numeric only. Scale: ng·h/mL

Task: Sample C[C@@H](C[N+](C)(C)C)OC(N)=O.[Cl-] [(S)-BTC, (S)-bethanechol] — what was its AUC(0-inf)?
Result: 1080

###

Assay: Liver microsome stability, dog
Conditions: dog, liver microsomes, Scale-up CLint, dog liver microsomes; Table 5
Experimental: For the liver microsome assay: • 1. The master solution was prepared according to Table 3. All liver microsome samples were purchased from BD Gentest. • 2. Two separate experiments were performed as follows: (i) With Cofactors (NADPH): 25 μL of 10 mM NADPH was added to the incubations. […] The reaction was started with the addition of 2.5 μL of 100 μM control compound or test compound solutions. […] Aliquots of 30 μL were taken from the reaction solution at 0.5, 5, 15, 30 and 60 minutes. […]
value kind: CLint scaled at 1 μM
The reply must contain the numeric value and, after it, the unit.

Task: Sample O[C@@](CCN1CCCCC1)(c1ccccc1)C1CCCCC1 [(R)-THP, (R)-trihexyphenidyl] — what was its CLint scaled at 1 μM?
Result: 257 mL/min/kg

###

assay: Liver microsome stability, rat; settings: rat, liver microsomes, in vitro CLint, rat liver microsomes; Example 15, Table 20
# key: entry, value: microsomal CLint at 1 μM
Numeric only. Scale: µL/min/mg

[
  {
    "molecule": "O[C@@](CCN1CCCCC1)(c1ccccc1)C1CCCCC1 [(R)-THP, (R)-trihexyphenidyl]",
    "units label": "µL/min/mg",
    "microsomal CLint at 1 μM": 2190
  }
]

Okay, next one:
Task: Sample O[C@](CCN1CCCCC1)(c1ccccc1)C1CCCCC1 [(S)-THP, (S)-trihexyphenidyl] — what was its microsomal CLint at 1 μM?
Result: 768

###

test: Liver microsome stability, human; settings: human, liver microsomes, in vitro CLint, human liver microsomes; Example 15, Table 20
value kind: microsomal CLint at 1 μM (µL/min/mg)
Numeric only. Scale: µL/min/mg

[
  {
    "molecule": "O[C@@](CCN1CCCCC1)(c1ccccc1)C1CCCCC1 [(R)-THP, (R)-trihexyphenidyl]",
    "data value": 19.9
  }
]

Okay, next one:
Task: Sample O[C@](CCN1CCCCC1)(c1ccccc1)C1CCCCC1 [(S)-THP, (S)-trihexyphenidyl] — what was its microsomal CLint at 1 μM?
Result: 57.3

###

Assay: Liver microsome stability, dog
Details: dog, liver microsomes, Scale-up CLint, dog liver microsomes; Example 15, Table 20
Procedure: For the liver microsome assay: • 1. The master solution was prepared according to Table 3. All liver microsome samples were purchased from BD Gentest. • 2. Two separate experiments were performed as follows: (i) With Cofactors (NADPH): 25 μL of 10 mM NADPH was added to the incubations. […] The reaction was started with the addition of 2.5 μL of 100 μM control compound or test compound solutions. […] Aliquots of 30 μL were taken from the reaction solution at 0.5, 5, 15, 30 and 60 minutes. […]
# key: entry, value: CLint scaled at 1 μM
The reply must contain the numeric value and, after it, the unit.

[
  {
    "compound": "O[C@](CCN1CCCCC1)(c1ccccc1)C1CCCCC1 [(S)-THP, (S)-trihexyphenidyl]",
    "CLint scaled at 1 μM": "429 mL/min/kg"
  }
]

Okay, next one:
Task: Sample O[C@@](CCN1CCCCC1)(c1ccccc1)C1CCCCC1 [(R)-THP, (R)-trihexyphenidyl] — what was its CLint scaled at 1 μM?
Result: 318 mL/min/kg

###

molecular target: human muscarinic receptor M1 (Homo sapiens, UniProt P11229); assay: cell-based
Sequence (P11229 whole entry): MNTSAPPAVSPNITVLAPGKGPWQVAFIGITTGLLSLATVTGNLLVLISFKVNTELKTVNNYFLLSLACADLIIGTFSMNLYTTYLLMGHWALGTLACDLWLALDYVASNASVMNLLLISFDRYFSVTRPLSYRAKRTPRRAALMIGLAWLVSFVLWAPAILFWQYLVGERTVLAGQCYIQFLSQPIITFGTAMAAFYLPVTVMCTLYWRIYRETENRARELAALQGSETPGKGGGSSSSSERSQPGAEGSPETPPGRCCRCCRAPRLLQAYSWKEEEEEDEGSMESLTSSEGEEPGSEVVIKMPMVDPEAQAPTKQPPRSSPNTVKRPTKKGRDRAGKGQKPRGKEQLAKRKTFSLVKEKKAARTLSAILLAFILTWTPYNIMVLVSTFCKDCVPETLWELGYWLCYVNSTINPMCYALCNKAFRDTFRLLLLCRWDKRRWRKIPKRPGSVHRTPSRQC
value kind: pEC50
Scale: pEC50 equals -log10([C]), with [C] in mol/L.

Task: Sample C[C@@H](C[N+](C)(C)C)OC(N)=O.[Cl-] [(S)-BTC, (S)-bethanechol] — what was its pEC50?
Result: 6.71

###

assay: Hepatocyte stability, dog; conditions: cryopreserved hepatocytes
value kind: CLint scaled at 1 μM (mL/min/kg)
Numeric only. Scale: mL/min/kg

Task: Sample O[C@@](CCN1CCCCC1)(c1ccccc1)C1CCCCC1 [(R)-THP, (R)-trihexyphenidyl] — what was its CLint scaled at 1 μM?
Result: 187

###

assay: In vivo PK of (S)-BTC in rats: plasma, brain, CSF; details: male, Sprague Dawley; CSF, rat, 10 mg/kg single oral dose, mean
value kind: AUC(0-t) (ng·h/mL)
Numeric only. Scale: ng·h/mL

Task: Sample C[C@@H](C[N+](C)(C)C)OC(N)=O.[Cl-] [(S)-BTC, (S)-bethanechol] — what was its AUC(0-t)?
Result: 6.31
